- assay_method_text: Effective concentration in vitro against HIV-1-infected CEM cells relative to uninfected untreated controls
value_type: pEC50
pEC50 here: minus log base 10 of the concentration, concentration in moles per litre.

Reference set (2 entries):
molecule="CO[C@H]1N(C2CC(N=[N+]=[N-])C(CO)O2)C(=O)NC(=O)[C@]1(C)I (stereo not given in full)" data_value=8.50
molecule="CC1(Br)C(=O)NC(=O)N([C@H]2C[C@H](N=[N+]=[N-])[C@@H](CO)O2)C1N=[N+]=[N-] (stereo not given in full)" data_value=3.70

Quick one: pEC50 of CCO[C@H]1N(C2CC(N=[N+]=[N-])C(CO)O2)C(=O)NC(=O)[C@]1(C)Br (stereo not given in full) ?
8.17

Quick one: pEC50 of CC(C)O[C@H]1N(C2CC(N=[N+]=[N-])C(CO)O2)C(=O)NC(=O)[C@]1(C)Br (stereo not given in full) ?
5.24

Quick one: pEC50 of CCCCCCCCO[C@H]1N(C2CC(N=[N+]=[N-])C(CO)O2)C(=O)NC(=O)[C@]1(C)Br (stereo not given in full) ?
6.06
